Source listed as patent US7358056B1.

- Tested on: WWP1 WW domains
- METHOD DESCRIPTION: TRF binding assay of biotinylated PY motif peptides to GST-WW domain fusions
- MEASUREMENT CONDITIONS: GST-WW domains coated at 30 μg/mL overnight
Where no end group is shown, it is not given here.
MEASURED PROPERTY: Interaction with WWP1 WW domains (TRF, peptide titration)

1. GPESPPPPYSRLSP (SEQ ID NO:21) (also: biotinylated) [Smad 6, biotinylated Smad6 PY motif peptide]    measurable interactions
2. PADTPPPAYMPPDD (SEQ ID NO:23) (also: biotinylated) [Smad 5, biotinylated Smad5 PY motif peptide]    measurable interactions
